Biological target: recombinant human CDK1/cyclin B complex (Homo sapiens, UniProt P06493)
Sequence (P06493 whole entry): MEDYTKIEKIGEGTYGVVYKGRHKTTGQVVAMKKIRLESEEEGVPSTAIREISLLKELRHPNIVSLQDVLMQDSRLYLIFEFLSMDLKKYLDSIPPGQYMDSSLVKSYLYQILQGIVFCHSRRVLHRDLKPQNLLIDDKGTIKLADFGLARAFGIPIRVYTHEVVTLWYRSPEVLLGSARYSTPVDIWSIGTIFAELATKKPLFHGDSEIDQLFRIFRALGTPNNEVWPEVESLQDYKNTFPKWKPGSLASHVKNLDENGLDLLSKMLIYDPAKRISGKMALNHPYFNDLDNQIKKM
Sequence (P14635 whole entry partner): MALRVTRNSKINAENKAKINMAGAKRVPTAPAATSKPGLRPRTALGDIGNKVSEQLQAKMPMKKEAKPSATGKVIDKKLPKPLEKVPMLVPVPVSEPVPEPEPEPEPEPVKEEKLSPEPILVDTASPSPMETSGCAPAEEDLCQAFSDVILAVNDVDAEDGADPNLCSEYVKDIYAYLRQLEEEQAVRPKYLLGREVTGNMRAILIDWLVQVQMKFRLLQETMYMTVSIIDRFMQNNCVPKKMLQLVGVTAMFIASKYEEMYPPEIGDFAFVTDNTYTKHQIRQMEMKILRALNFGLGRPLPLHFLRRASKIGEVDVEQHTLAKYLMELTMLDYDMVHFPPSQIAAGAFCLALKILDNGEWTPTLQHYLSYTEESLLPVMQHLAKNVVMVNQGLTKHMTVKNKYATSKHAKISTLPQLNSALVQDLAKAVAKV
Assay: 33P in vitro kinase HotSpot profiling assay, CDK1/cyclin B
Settings: [γ-33P]-ATP 10 µM; substrate histone H1; ten-point curves
measure-name: IC50

molecule	study-target	val
CC(C)(C)c1ccc(C(=O)n2nc(Nc3ccccc3)nc2N)cc1 [JK-31]	recombinant human CDK1/cyclin B complex (Homo sapiens, UniProt P06493)	2540 nM
